Where do the numbers come from? From PubChem BioAssay (NCI).

Kindly state TGI for each of the entries shown.
System: OVCAR-8 ovarian
Experiment: NCI tumour cell line growth inhibition, 48 h

# annotated cases, reported TGI shown
{"MOLECULE": "Cc1sc2nc3c4ccccc4c(NCCCN(C)C)nn3c(=O)c2c1C", "READOUT KIND": "TGI", "READING": "27.9 µM"}
{"MOLECULE": "O=C(/C=C/C(=O)N1CCCC1)N1CCCC1", "READOUT KIND": "TGI", "READING": "> 100 µM"}
{"MOLECULE": "CC(C)C(=O)C(C)(C)CCc1ccccn1", "READOUT KIND": "TGI", "READING": "> 100 µM"}
{"MOLECULE": "CCC(O)(Cc1ccc(OC)cc1)c1ccc(OC)cc1 (stereo not given)", "READOUT KIND": "TGI", "READING": "> 100 µM"}
{"MOLECULE": "Cc1cc(S(=O)(=O)/N=C(/C(=C=[N-])C#N)[n+]2ccc(N(C)C)cc2)c(SCC(=O)O)cc1Cl", "READOUT KIND": "TGI", "READING": "> 100 µM"}
{"MOLECULE": "CC1=C(C(=O)Nc2cccc(Cl)c2)C(c2ccccc2F)C(C(=O)Nc2cccc(Cl)c2)=C(C)N1", "READOUT KIND": "TGI", "READING": "46.9 µM"}
{"MOLECULE": "CCP(=O)(OC)C1=CCN(C(=O)OCC[Si](C)(C)C)CC1 (stereo not given)", "READOUT KIND": "TGI", "READING": "> 100 µM"}
{"MOLECULE": "O=C(O)C1CCCCC1C(=O)O.[NH-]C1CCC1.[NH2-].[Pt+2] (stereo not given)", "READOUT KIND": "TGI", "READING": "> 100 µM"}

For every listed record, write down its TGI.
1. Cc1cc(S(=O)(=O)Nc2n[nH]c(-c3ccccn3)n2)c(S)cc1Cl
2. Cc1cc2c(O)c(c1)CN(CC(=O)O)Cc1cc(C)cc(c1O)CN(CC(=O)O)Cc1cc(C)cc(c1O)CN(CC(=O)O)C2
3. CCC[n+]1cc2cc(OC)c(OC)cc2c2c1-c1cc3c(cc1C2)OCO3
4. C=C1OC(c2ccccc2NC)=NC12CCCCC2
5. O=[N+]([O-])c1cnn(C2=CNc3ccccc3N=C2)c1
6. COC(=O)[C@@H]1CCCCC[C@H]2C(CO)=C(C)C(=O)C12 (stereo not given in full)
7. CC[O-].CC[O-].O=S(=O)([O-])c1ccc([O-])c2ncccc12.O=S(=O)([O-])c1ccc([O-])c2ncccc12.[Ti+4]

Output:
["30.4 µM", "> 100 µM", "6.23 µM", "> 100 µM", "> 100 µM", "> 100 µM", "> 100 µM"]

Would you mind listing TGI for each of the following molecules?
1. COc1ccc2cc(-c3c(-c4ccncc4)nc(-c4ccc(S(C)(=O)=O)cc4C)n3C)ccc2c1
2. CC1CCC2(NC1)OC1CC3C4CC=C5CC(OC6OC(CO)C(OC7OC(C)C(O)C(O)C7O)C(O)C6OC6OC(C)C(O)C(O)C6O)CCC5(C)C4CCC3(C)C1C2C (stereo not given)
3. CC1C(NNc2ccccc2)Oc2cc3c(cc2C1c1ccccc1O)OCO3 (stereo not given)
4. COc1cc(C(c2c(O)c3ccccc3oc2=O)c2c(O)c3ccccc3oc2=O)cc(Br)c1O

Output:
> 25 µM
8.31 µM
86.8 µM
32.3 µM

Task: Quick one: TGI of `O=C(O)c1ccc2c(c1)CCCC(c1ccc(Cl)cc1Cl)=C2c1ccc(O[C@H]2CCN(CCCF)C2)cc1` ?
Output: 33.7 µM
